# Tested on: S. aureus RN4220
# experiment_summary: growth inhibition call (relative growth <= 0.2)
# condition_context: 50 µM
Among all 39,000 compounds or so, about 500 (1.3%) were called active. Only a selection was taken, and actives are over-represented in it overall.
Outcome codes: active, inactive

entry_smiles=C[C@H](CO)N1C[C@H](C)[C@@H](CN(C)C(=O)Nc2ccc(C(F)(F)F)cc2)Oc2ccc(NC(=O)CCC(F)(F)F)cc2C1=O class_label=active
entry_smiles=C[C@@H]1CN([C@H](C)CO)C(=O)c2cc(NC(=O)CCC(F)(F)F)ccc2O[C@@H]1CN(C)C(=O)Nc1ccc(C(F)(F)F)cc1 class_label=inactive
entry_smiles=Cc1noc(C)c1NC(=O)Nc1ccc2c(c1)C(=O)N([C@H](C)CO)C[C@H](C)[C@@H](CN(C)C(=O)Nc1ccc(C(F)(F)F)cc1)O2 class_label=inactive
entry_smiles=Cc1noc(C)c1NC(=O)Nc1ccc2c(c1)C(=O)N([C@@H](C)CO)C[C@H](C)[C@H](CN(C)C(=O)Nc1ccc(C(F)(F)F)cc1)O2 class_label=active
entry_smiles=C[C@H](CO)N1C[C@H](C)[C@H](CN(C)Cc2ccccc2)Oc2ccc(NC(=O)CCN3CCOCC3)cc2CC1=O class_label=inactive
entry_smiles=COCC(=O)Nc1ccc2c(c1)[C@H]1C[C@H](CC(=O)N3CCOCC3)O[C@H](CO)[C@H]1O2 class_label=inactive
entry_smiles=Cc1noc(C)c1NC(=O)Nc1ccc2c(c1)C(=O)N([C@@H](C)CO)C[C@@H](C)[C@H](CN(C)C(=O)Nc1ccc(C(F)(F)F)cc1)O2 class_label=inactive
